Catalogue of abundance fitness readings, one per entry.
B1: POU domain, class 2, transcription factor 1, residues 285 to 354; numbered along this chain, P14859 (parent)
chain: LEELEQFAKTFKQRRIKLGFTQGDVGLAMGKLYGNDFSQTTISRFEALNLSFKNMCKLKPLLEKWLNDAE

variants of: B1; assay: abundance fitness (aPCA) (normalised: wild type 0, dead -1); higher = more abundant; growth selection in yeast, the domain comes from the species named; details: Homo sapiens
Note: the reply should be a number with no unit written.

1. K57G : -0.082
2. R44E : -0.059
3. W65Y : -0.275
4. K57D : 0.04
5. L66G : -0.411

abundance fitness in this record for E5M : -0.028

The measured abundance fitness associated with K64T reads -0.04
